- System name: human liver cytosolic AOX1 (Homo sapiens)
- Method notes: Enzyme inactivation of human liver cytosolic AOX1-mediated carbazeran 4-oxidation
- Condition description: read-out: KI; half-maximal inactivation concentration; human liver cytosol, carbazeran 4-oxidation

{"columns": ["Chemical smiles", "Unit", "KI (inactivation)"],
 "data": [
  ["C#Cc1cccc(Nc2ncnc3cc(OCCOC)c(OCCO)cc23)c1", "µM", 5.23]
]}

---

- System name: human liver cytosolic AOX1 (Homo sapiens)
- Method notes: Partition ratio determination (titration, human liver cytosol)
- Format: biochemical
- Set-up: Enzymatic reaction was initiated by adding human liver cytosol (100 μg); tissue Corning, Inc. (Gentest brand) 452115; host or cells: human liver cytosol, pool of 150 donors
- Condition description: turnover number minus 1

{"columns": ["Chemical smiles", "Partition Ratio"],
 "data": [
  ["C#Cc1cc(Nc2ncnc3cc(OCCOC)c(OCCOC)cc23)ccc1C", 41.9],
  ["C#Cc1cccc(Nc2ncnc3cc(OCCO)c(OCCO)cc23)c1", 23.6]
]}

---

- System name: human recombinant AOX1 (Homo sapiens, UniProt Q06278)
- Construct: purchased Cypex Ltd CYP150
- Sequence (Q06278 1-1338): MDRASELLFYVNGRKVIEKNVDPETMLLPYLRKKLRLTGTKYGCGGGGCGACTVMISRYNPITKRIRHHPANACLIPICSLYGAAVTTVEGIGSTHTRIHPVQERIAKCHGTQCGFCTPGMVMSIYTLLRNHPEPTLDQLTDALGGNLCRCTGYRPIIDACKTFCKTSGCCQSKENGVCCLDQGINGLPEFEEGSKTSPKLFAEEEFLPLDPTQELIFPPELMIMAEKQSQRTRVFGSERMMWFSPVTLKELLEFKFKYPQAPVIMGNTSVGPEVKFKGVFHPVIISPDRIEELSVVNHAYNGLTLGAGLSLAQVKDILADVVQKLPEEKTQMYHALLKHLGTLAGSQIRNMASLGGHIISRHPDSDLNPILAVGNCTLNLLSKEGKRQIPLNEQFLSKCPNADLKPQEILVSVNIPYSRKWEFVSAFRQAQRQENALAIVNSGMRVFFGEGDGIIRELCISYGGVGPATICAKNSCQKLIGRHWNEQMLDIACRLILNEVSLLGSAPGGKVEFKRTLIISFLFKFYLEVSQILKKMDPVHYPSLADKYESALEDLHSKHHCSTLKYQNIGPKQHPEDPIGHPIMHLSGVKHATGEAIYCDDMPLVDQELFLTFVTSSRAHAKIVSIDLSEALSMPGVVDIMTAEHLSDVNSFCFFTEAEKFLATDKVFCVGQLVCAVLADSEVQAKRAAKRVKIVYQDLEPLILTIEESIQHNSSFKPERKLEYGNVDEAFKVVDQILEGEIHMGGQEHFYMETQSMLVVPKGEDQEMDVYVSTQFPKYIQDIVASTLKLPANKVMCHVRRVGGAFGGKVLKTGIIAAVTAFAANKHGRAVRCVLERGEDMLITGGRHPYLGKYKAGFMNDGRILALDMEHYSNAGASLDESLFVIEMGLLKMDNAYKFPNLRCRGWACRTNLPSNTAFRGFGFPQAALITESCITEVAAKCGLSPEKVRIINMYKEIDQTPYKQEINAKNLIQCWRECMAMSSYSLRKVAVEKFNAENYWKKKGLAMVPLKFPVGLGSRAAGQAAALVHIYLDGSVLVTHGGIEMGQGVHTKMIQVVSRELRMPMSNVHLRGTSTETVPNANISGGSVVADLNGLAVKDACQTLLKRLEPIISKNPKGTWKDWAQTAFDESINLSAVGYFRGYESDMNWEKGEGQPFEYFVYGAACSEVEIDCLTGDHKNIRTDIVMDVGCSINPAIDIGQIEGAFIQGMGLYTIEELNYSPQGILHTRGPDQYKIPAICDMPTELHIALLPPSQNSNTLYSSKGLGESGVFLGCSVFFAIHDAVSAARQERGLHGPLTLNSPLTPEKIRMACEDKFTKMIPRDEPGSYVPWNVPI
- Method notes: Time-dependent inactivation of carbazeran 4-oxidation by human recombinant AOX1
- Type: biochemical
- Condition description: each 10 μM (raloxifene 0.02 μM), 30-minute preincubation, vs vehicle control without preincubation

{"columns": ["Chemical smiles", "decrease in carbazeran 4-oxidation"],
 "data": [
  ["C#Cc1cccc(Nc2ncnc3cc(OCCOC)c(OCCO)cc23)c1", "91%"],
  ["COc1cc2ncnc(Nc3ccc(F)c(Cl)c3)c2cc1O", "did not decrease"],
  ["C#Cc1cccc(Nc2ncnc3cc(OCCO)c(OCCO)cc23)c1", "94%"],
  ["Oc1cc2ncnc(Nc3ccc(F)c(Cl)c3)c2cc1OCCCN1CCOCC1", "did not decrease"],
  ["COc1cc2ncnc(Nc3ccc(F)c(Cl)c3)c2cc1OCCCN1CCOCC1", "did not decrease"]
]}
